Origin of values: ChEMBL document CHEMBL1158127

Tested on: Mycobacterium tuberculosis
Assay: Antituberculosis activity against Mycobacterium tuberculosis H37Rv at 128 ug/mL
Assay type: functional
The source made the active and inactive calls. No cut-off for these calls is given here.
endpoint: Activity

CO[C@@H]1CC[C@]2(C)OC[C@H](C)C3C[C@@H](C)[C@@H](OC(C)=O)[C@H]4C(C[C@H]1C)OC2[C@@H]34 (stereo partly drawn)    inactive
CCCC(=O)O[C@]1(C)CCC2[C@@H]3C4OC(C/C(C)=C\CC[C@]4(C)OC(=O)[C@@H]2C)[C@@H]31 (stereo partly drawn)    91%
C=C1CC2OC3[C@H]4C(C[C@@H](C)[C@@H](OC(C)=O)[C@@H]24)[C@@H](C)CO[C@@]3(C)CC[C@@H]1O (stereo partly drawn)    inactive
